Assay: Exploratory trial: ingredients in β-glucuronidase (enzyme)-treated plasma
Assay type: in vivo, human
Conditions: human, in vivo
observed-property: Cmax (ng/mL)
Number only, in ng/mL; omit the unit.

Q. Using the record for `COc1ccc([C@@H]2CC(=O)c3c(O)cc(O)cc3O2)cc1O` , report its Cmax.
A. 0.799

----------
Reported Dose proportionality test using power model, β is given for each of the following compounds.
Test: Dose proportionality (linearity) test by power model for C max and AUC0-last
Settings: Cmax; rikkunshito 2.5, 5.0 or 7.5 g
Keep it simple and answer with nothing but the number.

Consider the following illustrative entries.
O=C(/C=C/c1ccc(O)cc1)c1ccc(O)cc1O; 0.692
COc1ccc(-c2cc(=O)c3c(OC)c(OC)c(OC)c(OC)c3o2)cc1OC; 0.701
C=C(CC[C@@H](C(=O)O)[C@H]1[C@H](O)C[C@@]2(C)C3=C(CC[C@]12C)[C@@]1(C)CC[C@H](OC(C)=O)C(C)(C)[C@@H]1CC3)C(C)C; 0.856

Q. Using the record for `O=C(O)/C=C/C#CC#C/C=C/c1ccco1` , report its Dose proportionality test using power model, β.
A. 1.05

Q. Now this one: `O=C1C[C@@H](c2ccc(O)cc2)Oc2cc(O)cc(O)c21`
A. 1.06

----------
Experiment: Exploratory trial: plasma concentration of rikkunshito ingredients after single oral rikkunshito 7.5 g
Type: in vivo
Conditions: human, in vivo, po
observed-property: concentration at 8 h (ng/mL)
Number only, in ng/mL; omit the unit.

Q. Using the record for `CC1(C)CC[C@]2(C(=O)O)CC[C@]3(C)C(=CC[C@@H]4[C@@]5(C)CC[C@H](O)C(C)(C)[C@@H]5CC[C@]43C)[C@@H]2C1` , report its concentration at 8 h.
A. 1.12

----------
Assay: Exploratory trial: plasma concentration of rikkunshito ingredients after single oral rikkunshito 7.5 g
Format: in vivo
Details: human, in vivo; rikkunshito 7.5 g, four subjects; highest mean concentration over 0–8 h; read-out: C max in plasma (exploratory trial)
observed-property: Cmax (ng/mL)
Number only, in ng/mL; omit the unit.

CC1(C)CC[C@]2(C(=O)O)CC[C@]3(C)C(=CC[C@@H]4[C@@]5(C)CC[C@H](O)C(C)(C)[C@@H]5CC[C@]43C)[C@@H]2C1; 1.12

Shifting focus to the compound that follows.
Q. Using the record for `C/C=C/C#CC#C/C=C/c1ccco1` , report its Cmax.
A. 1.38

----------
Assay: Dose proportionality (linearity) test by power model for C max and AUC0-last
Conditions: AUC0-last; rikkunshito 2.5, 5.0 or 7.5 g
Reported Dose proportionality test using power model, β is given for each of the following compounds.
Keep it simple and answer with nothing but the number.

Q. Using the record for O=C(O)/C=C/C#CC#C/C=C/c1ccco1 [Atractylodin carboxylic acid] , report its Dose proportionality test using power model, β.
A. 1.08

Q. Now this one: COc1ccc(-c2cc(=O)c3c(OC)c(OC)c(OC)c(OC)c3o2)cc1OC [Nobiletin]
A. 0.604

Q. Now this one: O=C1C[C@@H](c2ccc(O)cc2)Oc2cc(O)cc(O)c21 [Naringenin]
A. 1.02

Q. Now this one: C=C(CC[C@@H](C(=O)O)[C@H]1[C@H](O)C[C@@]2(C)C3=C(CC[C@]12C)[C@@]1(C)CC[C@H](OC(C)=O)C(C)(C)[C@@H]1CC3)C(C)C [Pachymic acid]
A. 1.39

----------
Test: Exploratory trial: plasma concentration of rikkunshito ingredients after single oral rikkunshito 7.5 g
Assay type: in vivo
Settings: human, in vivo; 4 h after single oral rikkunshito 7.5 g; mean ± S.D., n = 4; read-out: Plasma concentration, 4 h
observed-property: concentration at 4 h (ng/mL)
Number only, in ng/mL; omit the unit.

Q. Using the record for `C/C=C/C#CC#C/C=C/c1ccco1` , report its concentration at 4 h.
A. 1.14

----------
Assay: Stability of ingredients in gastric pH solution (pH 1.2, 37°C)
Type: physicochemical
Settings: 1 h, pH 1.2
Lab note: compare Stability in gastric pH solution, Quantitative value with 60 ng/mL, writing y if less and n if equal or more.

Before answering, review these 2 worked examples.
COc1ccc([C@@H]2CC(=O)c3c(O)cc(O)cc3O2)cc1O; y
COc1ccc(-c2cc(=O)c3c(OC)c(OC)c(OC)c(OC)c3o2)cc1; y

Q. Does the reported Stability in gastric pH solution, Quantitative value of the following compound sit strictly below 60 ng/mL? `O=C1C[C@@H](c2ccc(O)cc2)Oc2cc(O)cc(O)c21`
A. n

Q. Now this one: CC(C)=CCC[C@](C)(O[C@@H]1O[C@H](CO)[C@@H](O)[C@H](O)[C@H]1O)[C@H]1CC[C@]2(C)[C@@H]1[C@H](O)C[C@@H]1[C@@]3(C)CC[C@H](O)C(C)(C)[C@@H]3[C@@H](O[C@@H]3O[C@H](CO)[C@@H](O)[C@H](O)[C@H]3O)C[C@]12C [Ginsenoside Rg1]
A. n

----------
Reported Amount in urine, 4–8 h is given for each of the following compounds.
Assay: Exploratory trial: amount of rikkunshito ingredients in urine
Format: in vivo, human
Settings: 4–8 h after single oral rikkunshito 7.5 g; mean ± S.D., n = 4
Method: In the first exploratory trial, 20-mL blood samples were collected from the cutaneous vein in the subjects’ forearm via a blood sampling tube that contained heparin at 0 (preadministration), 0.5, 1, 2, 4, and 8 h after a single oral administration of rikkunshito (Lot E24652). […] For quantification of synephrine, 5 µL of standard solution or methanol was added to 100 µL plasma or urine samples followed by mixing. […]
Number only, in ng; omit the unit.

Q. Using the record for O=C(/C=C/c1ccc(O)cc1)c1ccc(O)cc1O [Isoliquiritigenin] , report its Amount in urine, 4–8 h.
A. 1010

Q. Now this one: CC1(C)[C@@H](O[C@@H]2O[C@H](C(=O)O)[C@@H](O)[C@H](O)[C@H]2O)CC[C@]2(C)[C@H]3C(=O)C=C4[C@@H]5C[C@@](C)(C(=O)O)CC[C@]5(C)CC[C@@]4(C)[C@]3(C)CC[C@@H]12 [Glycyrrhetic acid 3-O-glucuronide, Glycyrrhetinic acid 3-O-glucuronide]
A. 6.94

Q. Now this one: CC(C)=CCC[C@](C)(O[C@@H]1O[C@H](CO)[C@@H](O)[C@H](O)[C@H]1O)[C@H]1CC[C@]2(C)[C@@H]1[C@H](O)C[C@@H]1[C@@]3(C)CC[C@H](O)C(C)(C)[C@@H]3[C@@H](O[C@@H]3O[C@H](CO)[C@@H](O)[C@H](O)[C@H]3O)C[C@]12C [Ginsenoside Rg1]
A. 638

----------
Reported Amount in urine, 4–8 h is given for each of the following compounds.
Assay: Exploratory trial: amount of rikkunshito ingredients in urine
Format: in vivo, human
Conditions: 4–8 h after single oral rikkunshito 7.5 g; mean ± S.D., n = 4
Number only, in ng; omit the unit.

CC(C)=CCC[C@](C)(O)[C@H]1CC[C@]2(C)[C@@H]1[C@H](O)C[C@@H]1[C@@]3(C)CC[C@H](O)C(C)(C)[C@@H]3[C@@H](O[C@@H]3O[C@H](CO)[C@@H](O)[C@H](O)[C@H]3O[C@@H]3O[C@H](CO)[C@@H](O)[C@H](O)[C@H]3O)C[C@]12C [Ginsenoside Rf]; 23.0

Q. Using the record for CC(C)=CCC[C@](C)(O[C@@H]1O[C@H](CO)[C@@H](O)[C@H](O)[C@H]1O)[C@H]1CC[C@]2(C)[C@@H]1[C@H](O)C[C@@H]1[C@@]3(C)CC[C@H](O)C(C)(C)[C@@H]3[C@@H](O[C@@H]3O[C@H](CO)[C@@H](O)[C@H](O)[C@H]3O[C@@H]3O[C@@H](C)[C@H](O)[C@@H](O)[C@H]3O)C[C@]12C [Ginsenoside Re] , report its Amount in urine, 4–8 h.
A. 30.6

Q. Now this one: O=C1C[C@@H](c2ccc(O)cc2)Oc2cc(O)cc(O)c21 [Naringenin]
A. 2380

----------
Assay: Stability of ingredients in gastric pH solution (pH 1.2, 37°C)
Type: physicochemical
Conditions: 0.5 h, pH 1.2
Reported Stability in gastric pH solution, Quantitative value is given for each of the following compounds.
Number only, in ng/mL; omit the unit.

O=C1C[C@@H](c2ccc(O[C@@H]3O[C@H](CO)[C@@H](O)[C@H](O)[C@H]3O)cc2)Oc2cc(O)ccc21 [Liquiritin]; 1670
CC(C)=CCC[C@](C)(O[C@@H]1O[C@H](CO[C@@H]2O[C@H](CO)[C@@H](O)[C@H](O)[C@H]2O)[C@@H](O)[C@H](O)[C@H]1O)[C@H]1CC[C@]2(C)[C@@H]1[C@H](O)C[C@@H]1[C@@]3(C)CC[C@H](O[C@@H]4O[C@H](CO)[C@@H](O)[C@H](O)[C@H]4O[C@@H]4O[C@H](CO)[C@@H](O)[C@H](O)[C@H]4O)C(C)(C)[C@@H]3CC[C@]12C [Ginsenoside Rb1]; 297

Shifting focus to the compound that follows.
Q. Using the record for CC(C)=CCC[C@](C)(O[C@@H]1O[C@H](CO[C@@H]2OC[C@H](O)[C@H](O)[C@H]2O)[C@@H](O)[C@H](O)[C@H]1O)[C@H]1CC[C@]2(C)[C@@H]1[C@H](O)C[C@@H]1[C@@]3(C)CC[C@H](O[C@@H]4O[C@H](CO)[C@@H](O)[C@H](O)[C@H]4O[C@@H]4O[C@H](CO)[C@@H](O)[C@H](O)[C@H]4O)C(C)(C)[C@@H]3CC[C@]12C [Ginsenoside Rb2] , report its Stability in gastric pH solution, Quantitative value.
A. 275
